# Tested on: BT-549 breast
# assay_name: NCI-60 one-dose screen, 48 h (100 = growth as untreated, 0 = no growth, -100 = all killed)
# condition: 10 µM unless noted
The panel holds about 83,000 compounds, 20% with a hit somewhere; the sample as a whole holds those more often.
readout_name: growth (%)
Your answer is read as %, so omit the unit and give the number.

Challenge: Hello, I am looking for reported growth with BT-549 breast for "C/C=C/C=C1\C[C@H]2CO[C@H](O2)C1=O" . Could you help?
Response given: 127

Challenge: How about this molecule: "CCc1ccc(NC(=O)N[C@@H](Cc2cccc(C)c2)C(=O)N[C@@H]2C(=O)N3CCC[C@H]3C(=O)N3CCCC[C@H]3C(=O)N[C@@H](CO)C(=O)N3C[C@H](C)C[C@H]3C(=O)O[C@H]2C)c(F)c1"
Response given: 24.9

Challenge: // repeat for "O=C1[C@@H]2Cc3c([nH]c4ccccc34)[C@H](c3c(Cl)cccc3Cl)N2C(=O)CN1C1CCN(Cc2ccccc2)CC1" and report
Response given: 29.4

Challenge: Same thing, different molecule: "O=C(Nc1cccc(-c2nc(-c3ccc(NC(=O)c4cccnc4)cc3Cl)no2)c1)Nc1ccc(NC(=O)C2CC2)c(C(F)(F)F)c1"
Response given: -39.5

Challenge: Now try "COc1ccc2c(C3=C(c4cn(C)c5ccccc45)C(=O)NC3=O)coc2c1" .
Response given: 82.6

Challenge: Here is the next molecule: "O=C1c2c(O)cc(O)cc2O[C@@H](c2ccc(O)cc2)[C@@H]1c1c(O)cc(O)c2c(=O)cc(-c3ccc(O)c(O)c3)oc12"
Response given: 98.3

Challenge: Then what about the molecule "COc1ccc2c(c1)oc1c3[nH]c4ccccc4c3c3c(c21)C(=O)N(O)C3=O" ?
Response given: 40.9

Challenge: Lookup "O=C(CCCCCCN1CC(=O)N2[C@@H](c3cc(F)cc(F)c3)c3[nH]c4ccccc4c3C[C@H]2C1=O)NO"
Response given: 98.6

###

The following molecules are shown together with reported growth values.
# Test system: TK-10 renal
# assay_name: NCI-60 one-dose screen, 48 h (100 = growth as untreated, 0 = no growth, -100 = all killed)
# condition: 10 µM unless noted
The panel holds about 83,000 compounds, 20% with a hit somewhere; the sample as a whole holds those more often.
// note: answer is a bare numeric in %

Worked examples, 2 molecules total:
NS(=O)(=O)c1ccc(Nc2nc(N/N=C/c3ccc([N+](=O)[O-])cc3)nc(Nc3ccccc3)n2)cc1; 93.8
CCCCCCNC(=O)Oc1ccc(/C(=C(/C)c2ccccc2)c2ccc(OCCN(C)C)cc2)cc1; 83

Challenge: Fill in the blank: the reported growth of "Nc1nc(-c2cccc([N+](=O)[O-])c2)c(N=Nc2ccccc2[N+](=O)[O-])s1" is ____.
Response given: -38.6

Challenge: Entry COc1cc(C2CC(c3ccc(Nc4nc(NCCO)nc(Nc5ccc(Cl)cc5)n4)cc3)=Nc3c(N)nc(N)nc3N2)cc(OC)c1OC (stereo unspecified) please
Response given: 95.8

Challenge: And the next one, "O=C1c2c(c3c4cccnc4[nH]c3c3ccc4ccccc4c23)C(=O)N1CCN1CCCCC1" ?
Response given: 104

Challenge: Now give it for "CCOC(=O)c1c(NCC(=O)Nc2cccc([N+](=O)[O-])c2)sc2c1CCCC2" too.
Response given: -33.2

Challenge: Record: "CC1(C)CC[C@]2(C(=O)N3CCCN(CC#N)CC3)CC[C@]3(C)C(=CC[C@@H]4[C@@]5(C)CC[C@H](O)C(C)(C)[C@@H]5CC[C@]43C)[C@H]2C1"
Response given: 81.7

Provenance of the data: PubChem BioAssay (NCI)
